- test: Agilent InfinityLab Poroshell 120 SB-C18, 100 × 2.1 mm, 2.7 µm, 40 °C, 0.2 mL/min, estimated dead time 1.1 min; A: water + 0.1% formic acid; B: acetonitrile; gradient (min/%B) 0/2 15/95 16/95
- experimentalSetup: stereoisomer not certain
recordedEndpoint: LC retention time (min)

// known answers, use as guide
molecule	readoutUnits	LC retention time
Nc1nc2c(ncn2C2CC(O)C(CO)O2)c(=O)[nH]1 (stereo unspecified)	min	5.19
CC(O)(CC(=O)O)CC(=O)SCCNC(=O)CCNC(=O)C(O)C(C)(C)COP(=O)(O)OP(=O)(O)OCC1OC(n2cnc3c(N)ncnc32)C(O)C1OP(=O)(O)O (stereo unspecified)	min	3.78
Nc1ncnc2c1ncn2C1OC(CO)C(O)C1O (stereo unspecified)	min	4.62
Nc1nc2c(ncn2C2CC(O)C(COP(=O)(O)OP(=O)(O)O)O2)c(=O)[nH]1 (stereo unspecified)	min	11.7
CCCCCCCCCCCCCC=CC(O)C(COC1OC(CO)C(OC2OC(CO)C(O)C(O)C2O)C(O)C1O)NC(=O)CCCCCCCCCCCCCCCCCCCCC (stereo unspecified)	min	2.36
OCC1OC(OC2(CO)OC(CO)C(O)C2O)C(O)C(O)C1O (stereo unspecified)	min	4.1
CCCCCCCCCC=CC(=O)O	min	12.7
CC(=O)C(=O)O	min	2.51

a = CC(=O)NC1C(O)OC(CO)C(O)C1O (stereo unspecified)
b = COc1cc(C(O)C(=O)O)ccc1O (stereo unspecified)
c = CC(CCCC(CO)COS(=O)(=O)O)C1CCC2C3C(O)CC4CC(O)CCC4(C)C3CC(O)C12C (stereo unspecified)
Put the entries in order of LC retention time, starting with the largest number. Please express your ranking as an ordered list of the labels.
c, a, b
(c: 14.7 min, a: 2.94 min, b: 1.37 min)

---

- test: Agilent InfinityLab Poroshell 120 SB-C18, 100 × 2.1 mm, 2.7 µm, 40 °C, 0.2 mL/min, estimated dead time 1.1 min; A: water + 0.1% formic acid; B: acetonitrile; gradient (min/%B) 0/2 15/95 16/95
- experimentalSetup: stereoisomer not certain
recordedEndpoint: LC retention time (min)

In [3]: df
Out[3]:
                                   molecule  endpointvalue
0       CC(C)CC(N)C(=O)O (stereo not given)           6.01
1  CCCCCC(O)C=CC1C(O)CC(=O)C1CC=CCCCC(=O)O (stereo not given)           13.3
2  CC12CCC3C(CCC4=CC(=O)CCC43CO)C1CCC2=O (stereo not given)           6.37

A = NC(CCC(=O)NC(CSSCC(NC(=O)CCC(N)C(=O)O)C(=O)NCC(=O)O)C(=O)NCC(=O)O)C(=O)O (stereo not given)
B = NC(CC(=O)O)C(=O)O (stereo not given)
Select the item whose LC retention time value is smaller, choosing between A and B . Lab log: write the label of the selected item as the result.
B
